Parameter: DC50. Scope: all listed entries.
# system-name: TEAD1 in SK-HEP1 cells (Homo sapiens (Human), UniProt P28347)
# Sequence (P28347 whole entry): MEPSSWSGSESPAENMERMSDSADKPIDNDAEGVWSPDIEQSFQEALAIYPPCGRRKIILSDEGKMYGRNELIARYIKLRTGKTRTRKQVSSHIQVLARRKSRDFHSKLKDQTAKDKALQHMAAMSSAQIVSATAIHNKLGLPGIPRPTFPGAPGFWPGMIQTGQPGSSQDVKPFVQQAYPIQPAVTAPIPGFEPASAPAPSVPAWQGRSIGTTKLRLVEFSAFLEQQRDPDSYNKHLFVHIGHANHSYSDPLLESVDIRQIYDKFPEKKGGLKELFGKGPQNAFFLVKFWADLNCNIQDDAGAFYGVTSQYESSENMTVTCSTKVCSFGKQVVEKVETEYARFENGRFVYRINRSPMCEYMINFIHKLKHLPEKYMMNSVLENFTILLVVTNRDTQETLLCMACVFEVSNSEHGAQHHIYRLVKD
# assay-summary: TEAD degradation in SK-HEP1 cell line (immunofluorescence)
# Type: cell-based
# experimental-conditions: 24 h incubation, read-out: DC50 SK-HEP1 24 h

molecule	DC50
Cc1ncsc1-c1ccc([C@H](C)NC(=O)[C@@H]2C[C@@H](O)CN2C(=O)[C@@H](NC(=O)CCCCCc2cn(CCCCCCCNC(=O)c3ccc4c(c3)c3cn(C)nc3n4-c3ccc(C(F)(F)F)cc3)nn2)C(C)(C)C)cc1	280 nM
Cn1cc2c3cc(C(=O)NCCOCCOCCNC(=O)CCCCNc4cccc5c4CN(C4CCC(=O)NC4=O)C5=O)ccc3n(-c3ccc(C(F)(F)F)cc3)c2n1 (centres unmarked)	2400 nM
Cn1cc2c3cc(C(=O)NCCOCCOCCOCCOCCNc4cccc5c4C(=O)N(C4CCC(=O)NC4=O)C5=O)ccc3n(-c3ccc(C(F)(F)F)cc3)c2n1 (centres unmarked)	70 nM
Cn1cc2c3cc(C(=O)NCC#Cc4ccc(N5CCN(CCCC(=O)Nc6ccc7c(c6)CN(C6CCC(=O)NC6=O)C7=O)CC5)nc4)ccc3n(-c3ccc(C(F)(F)F)cc3)c2n1 (centres unmarked)	40 nM
Cc1ncsc1-c1ccc(CNC(=O)[C@@H]2C[C@@H](O)CN2C(=O)[C@@H](NC(=O)CCCCCC(=O)NCCOCCOCCNC(=O)c2ccc3c(c2)c2cn(C)nc2n3-c2ccc(C(F)(F)F)cc2)C(C)(C)C)cc1	2000 nM

###

# DC50 per record follows
# system-name: TEAD1 in NCI-H226 cells (Homo sapiens (Human), UniProt P28347)
# Sequence (P28347 whole entry): as above
# assay-summary: TEAD degradation in NCI-H226 cell line (immunofluorescence)
# Type: cell-based
# experimental-conditions: 24 hours, ranges, read-out: DC50 NCI-H226
property-label: DC50

item-smiles	system-name	test-value
Cc1ncsc1-c1ccc(CNC(=O)[C@@H]2C[C@@H](O)CN2C(=O)[C@@H](NC(=O)COCCOCCOCCNC(=O)c2ccc3c(c2)c2cn(C)nc2n3-c2ccc(C(F)(F)F)cc2)C(C)(C)C)cc1	TEAD1 in NCI-H226 cells (Homo sapiens (Human), UniProt P28347)	100 to 1000 nM
Cc1ncsc1-c1ccc(CNC(=O)[C@H]2C[C@H](O)CN2C(=O)[C@H](NC(=O)COCCOCCOCCOCCOCCNC(=O)c2ccc3c(c2)c2cn(C)nc2n3-c2ccc(C(F)(F)F)cc2)C(C)(C)C)cc1	TEAD1 in NCI-H226 cells (Homo sapiens (Human), UniProt P28347)	100 to 1000 nM
Cc1ncsc1-c1ccc([C@H](C)NC(=O)[C@@H]2C[C@@H](O)CN2C(=O)[C@@H](NC(=O)CCCCCc2cn(CCCCOCCNC(=O)c3ccc4c(c3)c3cn(C)nc3n4-c3ccc(C(F)(F)F)cc3)nn2)C(C)(C)C)cc1	TEAD1 in NCI-H226 cells (Homo sapiens (Human), UniProt P28347)	100 to 1000 nM

###

# system-name: TEAD1 in NCI-H226 cells (Homo sapiens (Human))
# assay-summary: TEAD degradation in NCI-H226 cell line (immunofluorescence)
# Type: cell-based
# experimental-conditions: 24 hours, ranges, read-out: DC50 NCI-H226

compound	DC50
Cc1ncsc1-c1ccc(CNC(=O)[C@@H]2C[C@@H](O)CN2C(=O)[C@@H](NC(=O)CCCCCC(=O)NCCOCCOCCNC(=O)c2ccc3c(c2)c2nn(C)nc2n3-c2ccc(C(F)(F)F)cn2)C(C)(C)C)cc1	100 to 1000 nM
Cn1cc2c3cc(C(=O)NCCOCCOCCNC(=O)COc4ccc5c(c4)C(=O)N(C4CCC(=O)NC4=O)C5=O)ccc3n(-c3ccc(C(F)(F)F)cc3)c2n1 (centres unmarked)	9000 to 30000 nM
Cc1ncsc1-c1ccc(CNC(=O)[C@@H]2C[C@@H](O)CN2C(=O)[C@@H](NC(=O)CCCOCCOCCOCCOCCNC(=O)c2ccc3c(c2)c2cn(C)nc2n3-c2ccc(C(F)(F)F)cc2)C(C)(C)C)cc1	1000 to 3000 nM
Cn1cc2c3cc(C(=O)NCCOCCOCCOCCOCCOCCOCCNc4cccc5c4C(=O)N(C4CCC(=O)NC4=O)C5=O)ccc3n(-c3ccc(C(F)(F)F)cc3)c2n1 (centres unmarked)	< 100 nM
Cc1ccc2c(c1)c1cc(C(=O)NCCOCCOCCOCCOCCNc3cccc4c3C(=O)N(C3CCC(=O)NC3=O)C4=O)ccc1n2-c1ccc(C(F)(F)F)cc1 (centres unmarked)	100 to 1000 nM
